# test description: A549 NSCLC cell proliferation inhibitors – ATP luminescence, human non-small cell lung line, primary screen (AID 371);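 also: compound exposure lasted 72 h before the ATP read; 0% = untreated cell signal and 100% = no luminescence left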
# setup conditions: at 10 µM, stronger effect = higher value
Hit rate of the full screen: of about 3,300 compounds, about 280 (8.5%) were called active. This excerpt belongs to a sample that is enriched for actives.
Answer N if growth inhibition is under 20%, and Y if it is 20% or more.

# compound, category label
measured = [
    ("c1csc(-c2nn3c(C4CCCCC4)nnc3s2)c1", "N"),
]

In: State whether the measured growth inhibition reaches 20%, counting equality as reaching it, for `CCNC(=O)COn1c(SCC(=O)NCC)nc2ccccc2c1=O`
Out: N

In: State whether the measured growth inhibition reaches 20%, counting equality as reaching it, for `C=CCOn1c(=O)c(-c2cc3ccccc3o2)[n+]([O-])c2ccccc21`
Out: N

In: State whether the measured growth inhibition reaches 20%, counting equality as reaching it, for `CCN(CC)CCn1c(O)c(N=O)c2ccccc21`
Out: N

In: State whether the measured growth inhibition reaches 20%, counting equality as reaching it, for CCN(CC)CCCN1C(=O)C(O)=C(C(=O)c2ccc(C)o2)C1c1ccc(C)o1 (stereo unspecified)
Out: N

In: State whether the measured growth inhibition reaches 20%, counting equality as reaching it, for CC1CCc2cc(F)cc3c(O)c(C(=O)NCc4ccco4)c(=O)n1c23 (stereo unspecified)
Out: Y

In: State whether the measured growth inhibition reaches 20%, counting equality as reaching it, for `Cc1ccccc1NC(=O)NCCc1nc2ccccc2[nH]1`
Out: N

In: State whether the measured growth inhibition reaches 20%, counting equality as reaching it, for O=C1NC2c3ccccc3C(=O)N2c2c1cnn2-c1ccccc1 (stereo unspecified)
Out: Y

----------
Kindly supply the reported growth inhibition values for the records listed here.
# test description: A549 NSCLC cell proliferation inhibitors – ATP luminescence, human non-small cell lung line, primary screen (AID 371);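 also: compound exposure lasted 72 h before the ATP read; 0% = untreated cell signal and 100% = no luminescence left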
# setup conditions: at 10 µM, stronger effect = higher value
In all, about 3,300 compounds went through this assay and about 280 (8.5%) were called active. The list comes from a sample in which actives are over-represented; it also holds close analogues and randomly drawn compounds.
Give bare numbers, in %.

Take a look at these entries with their results.
# molecule, quantity unit, growth inhibition
rows = [
    ("N#CC1=C(N)C(C#N)(C#N)[C@H](c2ccncc2)[C@H]2CN(C(=O)OCc3ccccc3)CC=C12", "%", 57.7),
    ("CC(C)(C)C1CCC2(CC1)C(C#N)=C(SCC(=O)Nc1ccccc1)NC(=O)C2C#N (centres undefined)", "%", 70.2),
    ("O=C(O)c1cc2n(n1)C(C(F)(F)F)CC(c1ccccc1)N2 (centres undefined)", "%", -0.01),
]

The record that follows has no growth inhibition shown yet.
In: Tell me its growth inhibition given `CC1(C)Cc2c(c(N3CCOCC3)nc3sc4c(NCc5ccco5)nnnc4c23)CS1` as the entry.
Out: 32.9

----------
# test description: A549 NSCLC cell proliferation inhibitors – ATP luminescence, human non-small cell lung line, primary screen (AID 371);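 also: compound exposure lasted 72 h before the ATP read; 0% = untreated cell signal and 100% = no luminescence left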
# setup conditions: at 10 µM, stronger effect = higher value
Hit rate of the full screen: of about 3,300 compounds, about 280 (8.5%) were called active. The full list was thinned out, with actives kept by preference.
observation type: growth inhibition (%)
Give bare numbers, in %.

# molecule, endpoint result
rows = [
    ("CC1CCN(c2[nH]c(=S)c(C#N)c3c2CCCC3)CC1", 56),
    ("CC1C[C@@]2(NC(=O)NC2=O)C(C)CN1C (stereo partly drawn)", 2.94),
    ("CC1(C)Cc2c(c(N3CCCCC3)[nH]c(=S)c2C#N)CS1", 4.02),
]

State the recorded growth inhibition for every item in the following list.
1. O=c1c2ccccc2ncn1Cc1ccco1
2. CCCCC(=O)O[C@H]1CC[C@H]2[C@@H]3CCc4cc(O)ccc4[C@H]3CC[C@]12C

Out:
1.72
92.3

Reference for the values: PubChem BioAssay AID371
